Experiment: in vivo
Details: mouse, iv, 20 mg/kg
Parameter: half-life
Lab note: write values as number then unit, every time.

> print(dat)
                           substance.smiles  observed
1  Cn1c2ccnc(N3CCOCC3)c2c2ncnc(N3CCN(CCc4ccc(F)c(F)c4)CC3)c21    1.97 h

According to the records, this compound `Cn1c2cccc(C(N)=O)c2c2nc(CN3CCOCC3)nc(N3CCN(CCc4ccc(F)c(F)c4)CC3)c21` displays half-life of 3.03 h

According to the records, this compound `O=[N+]([O-])c1cc([N+](=O)[O-])c2[nH]c3c(N4CCN(CCc5ccc(F)c(F)c5)CC4)nc(CN4CCOCC4)nc3c2c1` displays half-life of 2.4 h

---

Test: in vivo
Settings: mouse, ip, 50 mg/kg
Parameter: AUC (ng·h/mL)
Give the value in ng·h/mL but do not write ng·h/mL after it.

According to the records, this compound `O=[N+]([O-])c1cc([N+](=O)[O-])c2[nH]c3c(N4CCN(CCc5ccc(F)c(F)c5)CC4)nc(CN4CCOCC4)nc3c2c1` displays AUC of 30600

The origin of these recorded values is ChEMBL document CHEMBL1149093.
